# target.or.test.system: T1, mouse GFRAL (analyte in Biacore assays) (mouse, UniProt Q6SJE0 20-349, limits assumed)
# T1 construct: injected in solution over captured antibody
# T1 sequence: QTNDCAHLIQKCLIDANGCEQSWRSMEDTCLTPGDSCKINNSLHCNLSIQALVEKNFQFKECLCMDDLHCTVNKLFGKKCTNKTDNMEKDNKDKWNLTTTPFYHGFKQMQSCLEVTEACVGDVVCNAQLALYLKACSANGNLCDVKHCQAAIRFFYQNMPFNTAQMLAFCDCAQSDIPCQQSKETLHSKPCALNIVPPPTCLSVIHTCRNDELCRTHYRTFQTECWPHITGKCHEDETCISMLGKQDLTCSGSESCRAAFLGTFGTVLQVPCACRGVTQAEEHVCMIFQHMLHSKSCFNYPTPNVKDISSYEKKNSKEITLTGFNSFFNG
# protocol.description: Biacore SPR, antibody captured, GFRAL injected
property: Kd (nM)
Express it in nM; write the number only.

# binder, measured.number
records = [
    ("antibody designated 24G2 (antibody, V domains shown, mouse hybridoma monoclonal) VH: QVQLQQSGAELLKPGASVKLSCKASGYTFTTYWMHWVKQRPGQGLEWIGMIHPNSGSSNYNEKFKNKATLTVDKSSSTAYMQLSSLTSEDSAVYFCARSDYGFIPYFDYWGQGTTLTVSS VL: DILLTQSPAILSVSPGERVSFSCRASQSIGTSIHWYQQRTNGSPRLLIKYASESISGIPSRFSGSGSGTDFTLIINSVESEDIADYYCQQSNSWPTFTFGAGTKLELK", 5.02),
]

Now look at this one.
Task: Hello, please tell me recorded Kd for this one: antibody designated 12A3 (antibody, V domains shown, mouse hybridoma monoclonal) VH: QIQLVQSGPELKKPGETVKISCKASGYPFTIYGMNWVEQAPGKGLKWMGWINTYSGVPTYADDFKGRFAFSLETSASTAYLQINNLKDEDTATYFCASATGNYWGQGTTLTVSS VL: DIQMTQSPSSLSASLGERVSLTCRASQDIGSSLNWLQQEPDGTIKRLIYATSSLDSGVPKRFSGSRSGSDYSLTISSLESEDFVDYYCLQYASSPYTFGGGTKVEIK
Output: 5.7
